Each recorded value in this set is attributed to patent US12589143B2.

Listing of recorded Immunogenicity (titers) 1′ Conc. 1: by entry.
# Test system: MVF-PD-L1 peptide immunogen
# EXPERIMENTAL DETAILS: Immunogenicity in Balb/c mice, experiment 1 (CT26 WT): ELISA of sera vs each MVF-PD-L1 peptide immunogen
# Format: in vivo
# SETTINGS: Balb/c mice, bleed 2Y + 3
# Description: Immunogenicity of MVF-PD-L1 B-cell epitopes. New Zealand White rabbits were immunized with 1 mg of each MVF-peptide immunogens dissolved in dd H2O emulsified (1:1) in Montanide ISA 720 vehicle (Seppic) with 333 μg of N-acetylglucosamine-3yl-acetyl-1-alanyl-d-isoglutamine (nor-MDP). […] FIGS. 5A, 5B, 5C, and 5D show the experimental scheme to test the immunization with PD-L1 in Balb/c mice. […] Tumor growths were observed twice weekly and measured by calipers. […]
Where no end group is shown, it is not given here.

Worked examples, 3 sequences total:
> print(dat)
                         construct.sequence                        quantity.kind  result
1  KLLSLIKGVIVHRLEGVEGPSLVTSEHELTCQAEGYPKAE (KLLSLIKGVIVHRLEGVEGPSLVTSEHELTCQAEGYPKAE-NH2) [PD-L1(130)]  Immunogenicity (titers) 1′ Conc. 1:  128000
2  KLLSLIKGVIVHRLEGVEGPSLLIVYWEMEDKNIIQFVHG (KLLSLIKGVIVHRLEGVEGPSLLIVYWEMEDKNIIQFVHG-NH2) [PD-L1(36)]  Immunogenicity (titers) 1′ Conc. 1:   16000
3  KLLSLIKGVIVHRLEGVEGPSLFVHGEEDLKVQHSSYRQR (KLLSLIKGVIVHRLEGVEGPSLFVHGEEDLKVQHSSYRQR-NH2) [PD-L1(50)]  Immunogenicity (titers) 1′ Conc. 1:   12800

## Task Any idea what its Immunogenicity (titers) 1′ Conc. 1: is? The sequence is KLLSLIKGVIVHRLEGVEGPSLYRCMISYGGADYKRITVK (KLLSLIKGVIVHRLEGVEGPSLYRCMISYGGADYKRITVK-NH2) [PD-L1(95)]
## Result 32000

* * *

# Test system: MVF-PD-L1 peptide immunogen
# EXPERIMENTAL DETAILS: Immunogenicity in Balb/c mice, experiment 1 (CT26 WT): ELISA of sera vs each MVF-PD-L1 peptide immunogen
# Assay type: in vivo
# SETTINGS: Balb/c mice, bleed 2Y + 2
Where no end group is shown, it is not given here.
QUANTITY KIND: Immunogenicity (titers) 1′ Conc. 1:
Just the number, please.

Worked examples, 2 sequences total:
> print(dat)
                         construct.sequence  numeric.result
1  KLLSLIKGVIVHRLEGVEGPSLFVHGEEDLKVQHSSYRQR (KLLSLIKGVIVHRLEGVEGPSLFVHGEEDLKVQHSSYRQR-NH2) [PD-L1(50)]           12800
2  KLLSLIKGVIVHRLEGVEGPSLLIVYWEMEDKNIIQFVHG (KLLSLIKGVIVHRLEGVEGPSLLIVYWEMEDKNIIQFVHG-NH2) [PD-L1(36)]            6400

## Task Any idea what its Immunogenicity (titers) 1′ Conc. 1: is? The sequence is KLLSLIKGVIVHRLEGVEGPSLYRCMISYGGADYKRITVK (KLLSLIKGVIVHRLEGVEGPSLYRCMISYGGADYKRITVK-NH2) [PD-L1(95)]
## Result 32000
